- Test system: SN12C renal
- test.details: NCI-60 one-dose screen, 48 h
- experimental.conditions: 10 µM unless noted
The panel holds about 83,000 compounds, 20% with a hit somewhere; the sample as a whole holds those more often. Active and inactive are the calls of the source. How the source made its calls: active means growth percent below 10; inactive means the rest.
Possible outcomes: T = active, F = inactive

molecule	discrete.label
O=c1ccn(C2CC(O)C(O)C(CO)O2)c(=O)[nH]1 (stereo not given)	F
FC(F)(F)c1ccccc1-c1cn2c(ccc3ccccc32)n1	F
Cc1[nH]c2ccc(F)cc2c1CCNC(=O)C1CCN(C(=O)c2ccccc2)CC1	F
C=C(C)[C@@H]1CC[C@]2(C(=O)N3CCNCC3)CC[C@]3(C)[C@H](CC[C@@H]4[C@@]5(C)C/C(=C/c6ccncc6)C(=O)C(C)(C)[C@@H]5CC[C@]43C)[C@@H]12	F
COc1ccc2[nH]c(=O)c3c4ccccc4cn3c2c1	F
NC(=O)CCCN1C/C(=C\c2ccccc2)C(=O)c2ccccc21	F
COc1cc(-c2nn(-c3cccc(NC(=O)c4cccc(C(F)(F)F)c4)c3)cc2-c2ccncc2)ccc1Cl	F
CSc1nc2c(c(=O)[nH]1)C(c1ccc(C)cc1)C=C(C(=O)O)N2 (stereo not given)	F
COc1ccc(-c2nc3sc(-c4cc(OC)c(OC)c(OC)c4)nn3c2/C=C2/C(=O)Nc3ccc(F)cc32)cc1	T
COc1cc(NC(N)=NCCC(C)(C)Oc2ccc(C(F)(F)F)cc2)ncc1C#N	T

---

- System: SK-MEL-5 melanoma
- test.details: NCI-60 one-dose screen, 48 h (100 = growth as untreated, 0 = no growth, -100 = all killed)
- experimental.conditions: 10 µM unless noted
About 83,000 compounds went through this panel and 20% of them were active in at least one assay; those are over-represented in the sample as a whole.
Entries and their growth
outcome.measure: growth (%)

compound	recorded.result
CCCCCc1cc[n+](CC(=O)c2ccc([N+](=O)[O-])cc2)cc1	22
COc1ccc(/C=C/c2c(C(C)=O)c(C)nc3ccccc23)cc1	33.3
C=C1CCC[C@]2(C)CCC[C@H](C)[C@@H](OC(C)=O)[C@@H]3OC(=O)C(=C)[C@@H]3C[C@H]1O2	72.7
CCOC(=O)c1cc(C(=O)c2cc(OC)c(OC)c(OC)c2)n2c1ccc1ccccc12	9.89
c1ccc(-c2nc(N3CCNCC3)c3nc(-c4ccccc4)oc3n2)cc1	36.2
COc1cc(/C=C/C(=O)c2cccc(-n3cc(-c4cc(OC)c(OC)c(OC)c4)[nH]c3=O)c2)cc(OC)c1OC	27
N#Cc1c(-c2ccccc2)nc(SCC(=O)N2CCN(c3ccccc3)CC2)[nH]c1=O	103
c1cc2[nH]ncc2cc1-c1nc2ccc3[nH]ncc3c2c2c1CCC2	56.6
O=C(c1c[nH]c(=O)c(-c2ccccc2)c1)c1ccccc1O	95.4
Cc1ccc(-c2cc3nc(C(Cl)Cl)nc(-c4ccccc4C)n3n2)cc1	82.6
COc1cccc(-c2nc3sccn3c2-c2ccnc(NCCCNS(=O)(=O)c3ccc(C(F)(F)F)cc3)c2)c1	5.99
O=C1C(Cl)=C(Nc2ccccn2)C(=O)c2ccccc21	-84.2
C1=Cc2ccccc2N(c2nnc(-c3ccccc3)o2)c2ccccc21	72
COc1ccc(-c2nc(/C=N/Nc3cc(C)nc4ccc(Cl)cc34)c(C)o2)cc1	57
COc1ccc2c(c1)cn1c3ccc(OC)cc3[nH]c(=O)c21	4.14
ClC(Cl)c1nc(-c2cccnc2)n2nc(-c3ccccc3)cc2n1	36
CO[C@H]1NC(=O)N(S(=O)(=O)c2ccc(Cl)cc2)[C@@H]1OC	108
O=S1(=O)CCC(N(/N=C/c2ccco2)c2ccccc2)C1 (stereo unspecified)	103
O=[N+]([O-])c1ccc(OCCCOc2ccccc2)cc1	105
COc1ccc(-c2nc(SCCC(C)C)nc(Nc3ccc(F)c(Cl)c3)c2C#N)cc1	94.1
CC(C)(C)n1cc(-c2ccnc(NCCNS(=O)(=O)c3ccc(C(F)(F)F)cc3)c2)c(-c2cccc(O)c2)n1	20.9
